Below: a set of entries, each annotated with reported IC50.
Test system: SW620
Experiment: Inhibition of Cancer Cell Growth as Measured by Cell Number (Sulforhodamine B)
Type: cell-based, Human
Conditions: Homo sapiens, SW-620, 48 h, 48 hours exposure
Procedure: Human tumor cell lines were plated in 96-well plates (250 µl/well, 1-6 x 10^4 cells/ml) in RPMI 1640 medium, containing 5% FBS (Fetal Bovine Serum). […] After 48 hours exposure to test compounds, cells were fixed with trichloroacetic acid, and stained with Sulforhodamine B. After washing with trichloroacetic acid, bound dye was solubilized in 10 mM Tris base and optical density was determined using plate reader. […]

>  <Record Smiles>
CCOc1cc2ncc(C#N)c(Nc3ccc4c(c3)CCC4)c2cc1OCC

>  <Study Target>
SW620

>  <IC50>
< 0.0005 µg/mL

$$$$
>  <Record Smiles>
CCOc1cc2ncc(C#N)c(Nc3ccc4c(c3)C(=O)NCC(=O)N4C)c2cc1OCC

>  <Study Target>
SW620

>  <IC50>
> 5 µg/mL

$$$$
>  <Record Smiles>
CCOc1cc2ncc(C#N)c(Nc3ccc4c(=O)[nH][nH]c(=O)c4c3)c2cc1OCC

>  <Study Target>
SW620

>  <IC50>
> 5 µg/mL

$$$$
